System: HCT-15
Assay: NCI screening panel, HCT-15 (Colon Cancer)
Assay type: cell-based, human
parameter: Log10GI50
// response body must contain only the number

Request: Recorded Log10GI50 of CC(C)C[C@H](NC(=O)[C@H](COC(F)F)NC(=O)[C@H](COC(F)F)NC(=O)[C@H](CCc1ccccc1)NC(=O)CN1CCOCC1)C(=O)[C@@]1(C)CO1 [Example 7] , please.
Response: −5.89

Request: Recorded Log10GI50 of CC(C)C[C@H](NC(=O)[C@H](COC(F)F)NC(=O)CN1CCOCC1)C(=O)N[C@@H](COC(F)F)C(=O)N[C@@H](CC(C)C)C(=O)[C@@]1(C)CO1 [Example 1] , please.
Response: −5.97

Request: Recorded Log10GI50 of CC(C)C[C@H](NC(=O)[C@H](COC(F)F)NC(=O)CN1CCOCC1)C(=O)N[C@@H](Cc1ccccc1)C(=O)N[C@@H](CC(C)C)C(=O)[C@@]1(C)CO1 [Example 2] , please.
Response: −6.40

* * *

Tested on: NCI-H322M
Assay: NCI screening panel, NCI-H322M (Non-Small Cell Lung Cancer)
Type: cell-based, human
parameter: Log10GI50

Request: Recorded Log10GI50 of CC(C)C[C@H](NC(=O)[C@H](COC(F)F)NC(=O)[C@H](COC(F)F)NC(=O)[C@H](COC(F)F)NC(=O)CN1CCOCC1)C(=O)[C@@]1(C)CO1 [Example 17] , please.
Response: −6.58

Request: Recorded Log10GI50 of CC(C)C[C@H](NC(=O)[C@H](Cc1ccccc1)NC(=O)[C@H](COC(F)F)NC(=O)[C@H](COC(F)F)NC(=O)CN1CCOCC1)C(=O)[C@@]1(C)CO1 [Example 11] , please.
Response: −6.85

Request: Recorded Log10GI50 of CC(C)C[C@H](NC(=O)[C@H](COC(F)F)NC(=O)CN1CCOCC1)C(=O)N[C@@H](COC(F)F)C(=O)N[C@@H](CC(C)C)C(=O)[C@@]1(C)CO1 [Example 1] , please.
Response: −7.19

* * *

Overview of recorded Log10LC50 for various molecules
Tested on: NCI-H23
Test: NCI screening panel, NCI-H23 (Non-Small Cell Lung Cancer)
Type: cell-based, human

Example results:
molecule: CC(C)C[C@H](NC(=O)[C@H](COC(F)F)NC(=O)CN1CCOCC1)C(=O)N[C@@H](Cc1ccccc1)C(=O)N[C@@H](Cc1ccccc1)C(=O)[C@@]1(C)CO1 [Example 3]
Log10LC50: −4.33

molecule: CC(C)C[C@H](NC(=O)[C@H](COC(F)F)NC(=O)CN1CCOCC1)C(=O)N[C@@H](COC(F)F)C(=O)N[C@@H](CC(C)C)C(=O)[C@@]1(C)CO1 [Example 1]
Log10LC50: >−4.00

molecule: CC(C)C[C@H](NC(=O)[C@H](COC(F)F)NC(=O)CN1CCOCC1)C(=O)N[C@@H](COC(F)F)C(=O)N[C@@H](Cc1ccccc1)C(=O)[C@@]1(C)CO1 [Example 4]
Log10LC50: −4.31

Lab note: next molecule to report on.
Request: Could you share what Log10LC50 was measured for CC(C)C[C@H](NC(=O)[C@H](Cc1ccccc1)NC(=O)[C@H](COC(F)F)NC(=O)[C@H](COC(F)F)NC(=O)CN1CCOCC1)C(=O)[C@@]1(C)CO1 [Example 11] , tested on NCI-H23?
Response: >−4.00

* * *

Tested on: PC-3
Experiment: NCI screening panel, PC-3 (Prostate Cancer)
Format: cell-based, human
Method: Representative compounds of Formula I were screened using the National Cancer Institute (NCI) screening panel, which consists of a panel of human tumor cell lines, representing leukemia, melanoma, and cancers of the lung, colon, ovary, breast, prostate and renal system. […] Three dose response parameters are calculated for each experimental agent. […] The drug concentration resulting in total growth inhibition (TGI) is calculated from Ti=Tz. […]
parameter: Log10LC50

Example results:
chemical.structure: CC(C)C[C@H](NC(=O)[C@H](COC(F)F)NC(=O)[C@H](COC(F)F)NC(=O)[C@H](CCc1ccccc1)NC(=O)CN1CCOCC1)C(=O)[C@@]1(C)CO1
measurement.target: PC-3
Log10LC50: −5.41
//
chemical.structure: CC(C)C[C@H](NC(=O)[C@H](COC(F)F)NC(=O)CN1CCOCC1)C(=O)N[C@@H](COC(F)F)C(=O)N[C@@H](Cc1ccccc1)C(=O)[C@@]1(C)CO1
measurement.target: PC-3
Log10LC50: −4.68
//
chemical.structure: CC(C)C[C@H](NC(=O)[C@H](COC(F)F)NC(=O)CN1CCOCC1)C(=O)N[C@@H](Cc1ccccc1)C(=O)N[C@@H](Cc1ccccc1)C(=O)[C@@]1(C)CO1
measurement.target: PC-3
Log10LC50: −6.09

Request: Recorded Log10LC50 of `CC(C)C[C@H](NC(=O)[C@H](Cc1ccccc1)NC(=O)[C@H](COC(F)F)NC(=O)[C@H](COC(F)F)NC(=O)CN1CCOCC1)C(=O)[C@@]1(C)CO1` , please.
Response: >−4.00

Request: Recorded Log10LC50 of `CC(C)C[C@H](NC(=O)[C@H](COC(F)F)NC(=O)CN1CCOCC1)C(=O)N[C@@H](Cc1ccccc1)C(=O)N[C@@H](CC(C)C)C(=O)[C@@]1(C)CO1` , please.
Response: −5.62

Request: Recorded Log10LC50 of `CC(C)C[C@H](NC(=O)[C@H](COC(F)F)NC(=O)[C@H](COC(F)F)NC(=O)[C@H](COC(F)F)NC(=O)CN1CCOCC1)C(=O)[C@@]1(C)CO1` , please.
Response: −5.02

* * *

Target: proteasome Chymotrypsin-like (CT-L) activity (Mus musculus, UniProt O09061+O55234)
Construct: RBCs were lysed with assay lysis buffer and incubated on ice for 30 minutes; from tissue; host or cells: red blood cells of NOD/SCID mice
Experiment: Pharmacodynamic proteasome activity in murine red blood cells, CT-L
Type: in vivo, NOD/SCID mice
Settings: iv, mice, 2 mg/kg i.v., 24 hrs, read-out: Chymotrypsin-like (CT-L) mean residual activity relative to vehicle treated controls
Binary call on remaining activity at 2 mg/kg with cut-off 30%: strictly below means condition met, and equality or higher means condition not met.

Consider the following illustrative entries.
compound: CC(C)C[C@H](NC(=O)[C@H](COC(F)F)NC(=O)CN1CCOCC1)C(=O)N[C@@H](Cc1ccccc1)C(=O)N[C@@H](Cc1ccccc1)C(=O)[C@@]1(C)CO1 [Example 3]
class.label: condition not met
--
compound: CC(C)C[C@H](NC(=O)[C@H](CCc1ccccc1)NC(=O)CN1CCOCC1)C(=O)N[C@@H](Cc1ccccc1)C(=O)N[C@@H](CC(C)C)C(=O)[C@@]1(C)CO1 [Carfilzomib, carfilzomib, reference compound]
class.label: condition not met

Request: # check: remaining activity at 2 mg/kg < 30% for CC(C)C[C@H](NC(=O)[C@H](COC(F)F)NC(=O)CN1CCOCC1)C(=O)N[C@@H](COC(F)F)C(=O)N[C@@H](CC(C)C)C(=O)[C@@]1(C)CO1 [Example 1]
Response: condition met

Request: # check: remaining activity at 2 mg/kg < 30% for CC(C)C[C@H](NC(=O)[C@H](COC(F)F)NC(=O)CN1CCOCC1)C(=O)N[C@@H](COC(F)F)C(=O)N[C@@H](Cc1ccccc1)C(=O)[C@@]1(C)CO1 [Example 4]
Response: condition not met

* * *

Overview of recorded Log10GI50 for various compounds
Test system: IGROV1
Assay: NCI screening panel, IGROV1 (Ovarian Cancer)
Format: cell-based, human
// response body must contain only the number

Request: Could you share what Log10GI50 was measured for `CC(C)C[C@H](NC(=O)[C@H](COC(F)F)NC(=O)CN1CCOCC1)C(=O)N[C@@H](Cc1ccccc1)C(=O)N[C@@H](CC(C)C)C(=O)[C@@]1(C)CO1` , tested on IGROV1?
Response: −7.59

Request: Could you share what Log10GI50 was measured for `CC(C)C[C@H](NC(=O)[C@H](COC(F)F)NC(=O)[C@H](COC(F)F)NC(=O)[C@H](CCc1ccccc1)NC(=O)CN1CCOCC1)C(=O)[C@@]1(C)CO1` , tested on IGROV1?
Response: −7.49

Request: Could you share what Log10GI50 was measured for `CC(C)C[C@H](NC(=O)[C@H](COC(F)F)NC(=O)[C@H](COC(F)F)NC(=O)[C@H](COC(F)F)NC(=O)CN1CCOCC1)C(=O)[C@@]1(C)CO1` , tested on IGROV1?
Response: −6.87

Request: Could you share what Log10GI50 was measured for `CC(C)C[C@H](NC(=O)[C@H](COC(F)F)NC(=O)CN1CCOCC1)C(=O)N[C@@H](COC(F)F)C(=O)N[C@@H](CC(C)C)C(=O)[C@@]1(C)CO1` , tested on IGROV1?
Response: −7.43

Request: Could you share what Log10GI50 was measured for `CC(C)C[C@H](NC(=O)[C@H](Cc1ccccc1)NC(=O)[C@H](COC(F)F)NC(=O)[C@H](COC(F)F)NC(=O)CN1CCOCC1)C(=O)[C@@]1(C)CO1` , tested on IGROV1?
Response: −7.38

Request: Could you share what Log10GI50 was measured for `CC(C)C[C@H](NC(=O)[C@H](COC(F)F)NC(=O)CN1CCOCC1)C(=O)N[C@@H](COC(F)F)C(=O)N[C@@H](Cc1ccccc1)C(=O)[C@@]1(C)CO1` , tested on IGROV1?
Response: −7.33

Request: Could you share what Log10GI50 was measured for `CC(C)C[C@H](NC(=O)[C@H](COC(F)F)NC(=O)CN1CCOCC1)C(=O)N[C@@H](Cc1ccccc1)C(=O)N[C@@H](Cc1ccccc1)C(=O)[C@@]1(C)CO1` , tested on IGROV1?
Response: −7.93
